Where a SMILES comes first, the peptide text is derived from it. [ ]: non-standard residue; d: D form. The star is where a group is joined. alloThr(PO3H2) = C[C@H](OP(=O)(O)O)[C@H](N)C(=O)O; Biotin = O=C1N[C@H]2[C@H](CS[C@H]2CCCCC(=O)*)N1; Bip = N[C@@H](Cc1ccc(-c2ccccc2)cc1)C(=O)O; 2Nal = N[C@@H](Cc1ccc2ccccc2c1)C(=O)O; Bta = N[C@@H](Cc1csc2ccccc12)C(=O)O; Pip = O=C(O)[C@@H]1CCCCN1
Reported Ki values, Peptidyl-prolyl cis-trans isomerase NIMA-interacting 1 (Homo sapiens, UniProt Q13526).
Give bare numbers, in µM.

# count of solved cases: 2
1) CC(=O)N[C@@H](CCCCNC(=O)CCCC[C@@H]1SC[C@@H]2NC(=O)N[C@@H]21)C(=O)N[C@@H](C)C(=O)N[C@@H](C)C(=O)N[C@@H](Cc1ccc(-c2ccccc2)cc1)C(=O)N[C@H](C(=O)N1CCC[C@H]1C(=O)N[C@@H](Cc1ccc2ccccc2c1)C(=O)N[C@@H](CCC(N)=O)C(N)=O)[C@H](C)OP(=O)(O)O (Ac-K(Biotin)AA[Bip][alloThr(PO3H2)]P[2Nal]Q-NH2) = 0.0048
2) CC(=O)N[C@@H](Cc1csc2ccccc12)C(=O)N[C@H](C(=O)N1CCCC[C@@H]1C(=O)N[C@@H](Cc1ccc2ccccc2c1)C(=O)N[C@@H](CCC(N)=O)C(N)=O)[C@@H](C)OP(=O)(O)O = 0.258

Turning now to a further record.
Query string: Please tell me: Ki of CC(=O)N[C@@H](CCCCNC(=O)CCCC[C@@H]1SC[C@@H]2NC(=O)N[C@@H]21)C(=O)N[C@@H](C)C(=O)N[C@@H](C)C(=O)N[C@@H](Cc1csc2ccccc12)C(=O)N[C@H](C(=O)N1CCCC[C@H]1C(=O)N[C@@H](Cc1ccc2ccccc2c1)C(=O)N[C@@H](CCC(N)=O)C(N)=O)[C@H](C)OP(=O)(O)O (Ac-K(Biotin)AA[Bta][alloThr(PO3H2)][Pip][2Nal]Q-NH2) , system Peptidyl-prolyl cis-trans isomerase NIMA-interacting 1 (Homo sapiens, UniProt Q13526)?
Result string: 0.183

----------
Molecular target: Peptidyl-prolyl cis-trans isomerase NIMA-interacting 1 (Homo sapiens, UniProt Q13526)
Sequence (Q13526 whole entry): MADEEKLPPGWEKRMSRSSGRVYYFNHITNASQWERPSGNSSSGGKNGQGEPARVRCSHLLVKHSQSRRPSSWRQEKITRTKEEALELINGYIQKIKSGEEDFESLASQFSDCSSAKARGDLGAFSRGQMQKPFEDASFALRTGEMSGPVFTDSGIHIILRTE
Where a SMILES comes first, the peptide text is derived from it. [ ]: non-standard residue; d: D form. The star is where a group is joined. dalloThr(PO3H2) = C[C@@H](OP(=O)(O)O)[C@@H](N)C(=O)O; Biotin = O=C1N[C@H]2[C@H](CS[C@H]2CCCCC(=O)*)N1; 2Nal = N[C@@H](Cc1ccc2ccccc2c1)C(=O)O; Bta = N[C@@H](Cc1csc2ccccc12)C(=O)O; Pip = O=C(O)[C@@H]1CCCCN1
Reported property: pKi
Numbers only, as −log10 of the molar value.

Query string: Fill in: pKi of CC(=O)N[C@@H](CCCCNC(=O)CCCC[C@@H]1SC[C@@H]2NC(=O)N[C@@H]21)C(=O)N[C@@H](C)C(=O)N[C@@H](C)C(=O)N[C@@H](Cc1csc2ccccc12)C(=O)N[C@@H](C(=O)N1CCCC[C@H]1C(=O)N[C@@H](Cc1ccc2ccccc2c1)C(=O)N[C@@H](CCC(N)=O)C(N)=O)[C@@H](C)OP(=O)(O)O (Ac-K(Biotin)AA[Bta][dalloThr(PO3H2)][Pip][2Nal]Q-NH2) is ___
Result string: 8.92
